Molecular target: TbSADH (Thermoanaerobacter brockii)
Construct: recombinant from E. coli BL21(DE3), pET28a or pET22b vector, purified by AKTA; homotetramer
Sequence (P14941 whole entry): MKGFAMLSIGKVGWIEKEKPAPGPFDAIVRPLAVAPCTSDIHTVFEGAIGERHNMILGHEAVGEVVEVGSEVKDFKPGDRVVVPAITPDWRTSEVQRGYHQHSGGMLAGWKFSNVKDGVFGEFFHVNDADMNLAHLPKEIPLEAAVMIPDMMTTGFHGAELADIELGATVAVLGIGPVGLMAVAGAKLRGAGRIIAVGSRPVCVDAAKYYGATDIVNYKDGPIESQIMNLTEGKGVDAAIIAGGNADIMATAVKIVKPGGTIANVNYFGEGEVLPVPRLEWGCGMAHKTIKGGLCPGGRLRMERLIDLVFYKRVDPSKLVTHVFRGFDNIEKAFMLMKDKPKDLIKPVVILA
Assay: isothermal titration calorimetry
VALUE KIND: Kd

Field: Kd (TbSADH (Thermoanaerobacter brockii)). Entry: Cc1nnc[nH]1
770 µM
